Each recorded value in this set is attributed to patent US9868746B2.

Reported Emax at 30 µM is given for each of the following compounds.
# tgt: mAChR M4 (Homo sapiens)
# Construct: expressed in transfected cells; host or cells: CHO-K1 cells stably transfected with M4 cDNA and chimeric G-protein Gqi5
# Sequence (P08173 1-479): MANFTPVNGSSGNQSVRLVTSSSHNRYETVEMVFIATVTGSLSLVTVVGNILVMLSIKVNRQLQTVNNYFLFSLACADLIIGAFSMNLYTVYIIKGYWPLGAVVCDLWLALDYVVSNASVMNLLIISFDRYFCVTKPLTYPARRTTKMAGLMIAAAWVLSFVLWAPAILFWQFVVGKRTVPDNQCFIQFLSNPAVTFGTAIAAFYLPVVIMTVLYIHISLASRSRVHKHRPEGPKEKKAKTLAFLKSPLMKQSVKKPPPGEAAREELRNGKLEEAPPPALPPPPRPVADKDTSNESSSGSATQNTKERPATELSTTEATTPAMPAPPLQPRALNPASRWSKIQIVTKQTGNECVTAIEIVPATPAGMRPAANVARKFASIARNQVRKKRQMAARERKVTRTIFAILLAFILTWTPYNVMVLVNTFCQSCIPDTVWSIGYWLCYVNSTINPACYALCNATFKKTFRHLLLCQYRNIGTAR
# protocol: mAChR M4 cell-based functional assay (calcium mobilization, potentiation of EC20 acetylcholine response)
# experimental.context: % ACh maximum at 30 μM

[
  {
    "compound": "Cc1nnc2sc(C(=O)N3CC(NCc4ccco4)C3)c(N)c2c1C",
    "Emax at 30 µM, %": 41
  },
  {
    "compound": "Cc1nnc2sc(C(=O)N3CC(F)(c4cccc(-c5ccncc5)c4)C3)c(N)c2c1C",
    "Emax at 30 µM, %": 44
  },
  {
    "compound": "Cc1nnc2sc(C(=O)Nc3ccncc3)c(N)c2c1C",
    "Emax at 30 µM, %": 54
  },
  {
    "compound": "Cc1nnc2sc(C(=O)N3CCC(NC(=O)c4ccccc4)C3)c(N)c2c1C (centres unmarked)",
    "Emax at 30 µM, %": 78
  },
  {
    "compound": "Cc1nnc2sc(C(=O)N3CCC(O)(c4ccccc4)C3)c(N)c2c1C (centres unmarked)",
    "Emax at 30 µM, %": 48
  },
  {
    "compound": "Cc1nnc2sc(C(=O)NCc3ccc(=O)n(C)c3)c(N)c2c1C",
    "Emax at 30 µM, %": 65
  },
  {
    "compound": "Cc1nnc2sc(C(=O)NC3CCN(c4ccccc4F)C3)c(N)c2c1C (centres unmarked)",
    "Emax at 30 µM, %": 74
  },
  {
    "compound": "Cc1nnc2sc(C(=O)NC3CCN(C(=O)c4ccc(F)cc4)C3)c(N)c2c1C (centres unmarked)",
    "Emax at 30 µM, %": 77
  }
]
